Just for reference, patent US20140243322A1 is where these values come from.

# Study target: N-terminal His 6-tagged BRD2 tandem protein
# Method: Surface Plasmon Resonance (SPR) off-rate assay
# Format: binding
# Measurement setup: immobilized BRD2 tandem protein; saturating concentrations injected 5 minutes, buffer 20 minutes
Assay readout: kd (off rate) (s⁻¹)
Write the number in s⁻¹ without appending the unit.

Solved cases (2 shown):
CCNC(=O)C[C@@H]1N=C(c2ccc(Cl)cc2)c2cc(OCCOCCOCCOCCOCCOCCOCCOCCNC(=O)C[C@@H]3N=C(c4ccc(Cl)cc4)c4cc(OC)ccc4-n4c(C)nnc43)ccc2-n2c(C)nnc21
8.3e-05
CCNC(=O)C[C@@H]1N=C(c2ccc(Cl)cc2)c2cc(OCCOCCNC(=O)C[C@@H]3N=C(c4ccc(Cl)cc4)c4cc(OC)ccc4-n4c(C)nnc43)ccc2-n2c(C)nnc21
0.00011

Bench note, N-terminal His 6-tagged BRD2 tandem protein: CCNC(=O)C[C@@H]1N=C(c2ccc(Cl)cc2)c2cc(OCCOCCOCCOCCOCCOCCOCCNC(=O)C[C@@H]3N=C(c4ccc(Cl)cc4)c4cc(OC)ccc4-n4c(C)nnc43)ccc2-n2c(C)nnc21 , kd (off rate) reads 7.5e-05

Bench note, N-terminal His 6-tagged BRD2 tandem protein: CCNC(=O)C[C@@H]1N=C(c2ccc(Cl)cc2)c2cc(OCCCNC(=O)C[C@@H]3N=C(c4ccc(Cl)cc4)c4cc(OC)ccc4-n4c(C)nnc43)ccc2-n2c(C)nnc21 , kd (off rate) reads 0.00011
